// reported Plasma stability % Remaining, Mouse per item
assay: In vitro plasma stability, CD-1 mouse plasma; settings: 2 μM, 37 °C, time point 120 min
Hey, just the number and the unit after it is fine.

Worked set:
CCCc1nnc(SCC2=C(C(=O)O)N3C(=O)[C@@H](NC(=O)Cc4ccc(C(=N)N)cc4)[C@H]3SC2)s1 [TBBL-0000314]
76.2%
O=C(O)C1=C(CSc2cccc[n+]2[O-])CS[C@@H]2[C@H](NC(=O)C(F)c3ccccc3)C(=O)N12 (some centres unmarked) [TBBL-0000004]
84.1%
NCCSC=CC1=C(C(=O)O)N2C(=O)C(NC(=O)CSc3ccc(Cl)c(Cl)c3)C2SC1 (centres unmarked) [TBBL-0000306]
33.8%
CNCc1ccccc1CC(=O)N[C@@H]1C(=O)N2C(C(=O)O)=C(CSc3nnnn3C)CS[C@H]12 [TBBL-0000468]
72.0%
CCc1nnc(SCC2=C(C(=O)O)N3C(=O)[C@@H](NC(=O)Cc4ccc(C5=NCCCN5)cc4)[C@H]3SC2)s1 [TBBL-0000317]
13.3%

GET /value?item= CC=CC(=O)OCC1=C(C(=O)O)N2C(=O)[C@@H](NC(=O)C(=NO)c3cccs3)[C@H]2SC1 [TBBL-0000058] &field=Plasma stability % Remaining, Mouse returns 67.6%

GET /value?item= Cn1c(SCC2=C(C(=O)O)N3C(=O)[C@@H](NC(=O)Cc4ccccc4CN)[C@H]3SC2)nnc(O)c1=O [TBBL-0000460] &field=Plasma stability % Remaining, Mouse returns 88.8%

GET /value?item= Cn1nnnc1SCC1=C(C(=O)O)N2C(=O)[C@@H](NC(=O)Cc3ccc(C4=NCCCN4)cc3)[C@H]2SC1 [TBBL-0000309] &field=Plasma stability % Remaining, Mouse returns 68.8%

Entry source: paper PMC8922279
